Measured values drawn from patent US8901118B2 for this set.

Collected pIC50 values appear next to each entry.
system tested: BCR-NTRK3 BaF3 cells (Homo sapiens, UniProt Q16288)
Construct: fused on or other part: P11274 (Breakpoint cluster region protein)
Sequence (Q16288 whole entry, the tested form may be a part): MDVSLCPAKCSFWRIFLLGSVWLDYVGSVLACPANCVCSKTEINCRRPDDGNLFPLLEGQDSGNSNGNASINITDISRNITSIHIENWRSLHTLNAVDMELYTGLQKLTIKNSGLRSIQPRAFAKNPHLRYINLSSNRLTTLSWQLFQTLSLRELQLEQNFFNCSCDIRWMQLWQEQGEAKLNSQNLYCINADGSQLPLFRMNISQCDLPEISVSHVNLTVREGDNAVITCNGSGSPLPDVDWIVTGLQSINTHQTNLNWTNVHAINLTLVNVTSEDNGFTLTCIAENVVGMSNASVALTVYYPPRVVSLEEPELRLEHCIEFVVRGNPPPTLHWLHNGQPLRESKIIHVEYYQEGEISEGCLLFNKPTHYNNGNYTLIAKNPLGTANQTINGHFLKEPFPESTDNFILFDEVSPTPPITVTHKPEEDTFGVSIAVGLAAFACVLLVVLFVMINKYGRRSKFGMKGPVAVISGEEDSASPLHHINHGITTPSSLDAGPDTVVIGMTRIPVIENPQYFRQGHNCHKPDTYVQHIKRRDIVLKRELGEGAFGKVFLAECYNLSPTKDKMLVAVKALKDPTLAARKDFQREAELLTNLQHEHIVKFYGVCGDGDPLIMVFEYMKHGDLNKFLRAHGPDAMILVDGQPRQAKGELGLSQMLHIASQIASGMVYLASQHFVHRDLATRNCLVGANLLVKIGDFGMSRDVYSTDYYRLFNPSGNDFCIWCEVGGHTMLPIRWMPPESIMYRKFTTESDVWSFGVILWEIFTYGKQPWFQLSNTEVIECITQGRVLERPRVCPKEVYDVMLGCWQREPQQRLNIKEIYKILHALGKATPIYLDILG
measurement description: BaF3 BCR-NTRK3 cell proliferation assay (ATPlite)
assay conditions: read-out: Inhibition of Cell Proliferation IC50, BCR/BaF3 TrkC
pIC50: −log10 of the molar value.
quantity measured: pIC50

COCCCNc1ncnc2[nH]cc(C(=O)c3ccc(Nc4ccc(OC)nc4)nc3F)c12 = > 8.00
O=C(c1ccc(Nc2ccc(C3CC3)nc2)nc1F)c1c[nH]c2ncnc(NC3CC3)c12 = > 8.00
COc1ccc(Nc2ccc(C(=O)c3c[nH]c4ncnc(NC5CCC(F)(F)CC5)c34)c(F)n2)cn1 = > 8.00
Cc1cnc2[nH]cc(Cc3cnc(Nc4ccc(S(C)(=O)=O)cc4)nc3)c2c1 = > 7.00
COc1ccc(Nc2ccc(Cc3c[nH]c4ncnc(C5CC5)c34)c(F)n2)cn1 = > 8.00
COc1ccc(Nc2ccc(C(=O)c3c[nH]c4ncnc(NC5CCC5)c34)c(F)n2)cn1 = > 8.00
Fc1nc(Nc2ccc(C3CC3)nc2)ccc1Cc1c[nH]c2ncnc(C3CC3)c12 = > 8.00
FC1(F)CCC(Nc2ncc(Cc3c[nH]c4ncc(Cl)cc34)cn2)CC1 = > 5.00
COc1ncnc2[nH]cc(Cc3ccc(Nc4ccc(C)nc4)nc3F)c12 = > 7.00
COc1ccc(Nc2ccc(C(=O)c3c[nH]c4ncnc(NCc5ccc(C(F)(F)F)nc5)c34)c(F)n2)cn1 = > 8.00
COc1ccc(Nc2ncc(Cc3c[nH]c4ncc(C)cc34)cn2)cc1 = > 7.00
CCOc1ccc(Nc2ccc(C(=O)c3c[nH]c4ncnc(C)c34)c(F)n2)cn1 = > 7.00
COc1ccc(Nc2ccc(C(=O)c3c[nH]c4ncc(C)cc34)c(F)n2)cn1 = > 8.00
O=C(c1ccc(Nc2ccc(C3CC3)nc2)nc1F)c1c[nH]c2ncnc(NCC(F)(F)F)c12 = > 8.00
O=C(c1ccc(Nc2ccc(C(F)(F)F)nc2)nc1F)c1c[nH]c2ncnc(NC3CC3)c12 = > 8.00
CCOc1ccc(Nc2ccc(Cc3c[nH]c4ncnc(OCCOC)c34)c(F)n2)cn1 = > 7.00
CNc1ncnc2[nH]cc(C(=O)c3ccc(Nc4ccc(OC)nc4)nc3F)c12 = > 8.00
CCn1cc(Nc2ncc(Cc3c[nH]c4ncc(C)cc34)cn2)cn1 = > 6.00
CCNc1ncnc2[nH]cc(C(=O)c3ccc(Nc4ccc(OC)nc4)nc3F)c12 = > 8.00
COc1ccc(Nc2ccc(C(=O)c3c[nH]c4ncnc(NC5CCCCC5)c34)c(F)n2)cn1 = > 8.00
COc1cncc(Nc2ccc(C(=O)c3c[nH]c4ncnc(NC(C)C)c34)c(F)n2)c1 = > 8.00
COc1cncc(Nc2ccc(C(=O)c3c[nH]c4ncnc(NC5CC5)c34)c(F)n2)c1 = > 8.00
Cc1cnc2[nH]cc(Cc3cnc(Nc4cc(-c5ccc(F)cc5)n[nH]4)nc3)c2c1 = > 7.00
CCc1ccc(Nc2ccc(C(=O)c3c[nH]c4ncnc(N)c34)c(F)n2)cn1 = > 8.00
CCNc1ncnc2[nH]cc(C(=O)c3ccc(NC4CCC(F)(F)CC4)nc3Cl)c12 = > 6.00
Fc1cccc(Nc2ncc(Cc3c[nH]c4ncc(Cl)cc34)cn2)c1 = < 5.00
CCCOc1ccc(Nc2ncc(Cc3c[nH]c4ncc(C)cc34)cn2)cc1 = > 7.00
O=C(c1cnc(NC2CCC(F)(F)CC2)c(F)c1)c1c[nH]c2ncnc(NC3CC3)c12 = > 8.00
Cc1cnc2[nH]cc(Cc3cnc(Nc4cc(C(C)(C)C)n[nH]4)nc3)c2c1 = > 6.00
Fc1ccc(Nc2ncc(Cc3c[nH]c4ncc(Cl)cc34)cn2)cc1 = > 6.00
CNc1ncnc2[nH]cc(C(=O)c3ccc(Nc4ccc(C)nc4)nc3F)c12 = > 8.00
CCc1ccc(Nc2ccc(C(=O)c3c[nH]c4ncnc(NCCOC)c34)c(F)n2)cn1 = > 8.00

====

Collected pIC50 values appear next to each entry.
system tested: CYP2D6 (Homo sapiens)
Sequence (P10635 whole entry): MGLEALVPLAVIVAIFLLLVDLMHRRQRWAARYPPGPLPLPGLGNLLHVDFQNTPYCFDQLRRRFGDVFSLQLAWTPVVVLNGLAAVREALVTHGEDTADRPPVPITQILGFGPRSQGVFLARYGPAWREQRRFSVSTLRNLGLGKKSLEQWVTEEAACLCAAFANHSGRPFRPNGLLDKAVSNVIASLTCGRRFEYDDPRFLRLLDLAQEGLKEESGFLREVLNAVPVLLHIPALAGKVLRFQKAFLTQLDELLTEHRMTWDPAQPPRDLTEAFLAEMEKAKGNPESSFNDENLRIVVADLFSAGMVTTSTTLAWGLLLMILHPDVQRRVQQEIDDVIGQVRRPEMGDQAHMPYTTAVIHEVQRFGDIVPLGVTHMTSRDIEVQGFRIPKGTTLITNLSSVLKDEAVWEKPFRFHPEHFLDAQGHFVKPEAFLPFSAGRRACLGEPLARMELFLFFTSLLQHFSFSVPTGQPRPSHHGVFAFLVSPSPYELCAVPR
pIC50: −log10 of the molar value.
quantity measured: pIC50

O=C(c1cnc(NC2CCC(F)(F)CC2)c(F)c1)c1c[nH]c2ncnc(NC3CC3)c12 = < 5.00
Fc1nc(Nc2ccc(C3CC3)nc2)ccc1Cc1c[nH]c2ncnc(C3CC3)c12 = < 5.00
Cc1ccc(Nc2ccc(Cc3c[nH]c4ncnc(C5CC5)c34)c(F)n2)cn1 = < 5.00
COc1ccc(Nc2ccc(Cc3c[nH]c4ncc(C)cc34)c(F)n2)cn1 = < 5.00
CCOc1ncnc2[nH]cc(Cc3ccc(Nc4ccc(C)nc4)nc3F)c12 = < 5.00
COc1ccc(Nc2ccc(Cc3c[nH]c4ncnc(C5CC5)c34)c(F)n2)cn1 = 5.00 to 5.30
COc1ccc(Nc2ccc(C(=O)c3c[nH]c4ncnc(NCC5CCCO5)c34)c(F)n2)cn1 (stereo not shown) = < 5.00
COc1ccc(Nc2ccc(C(=O)c3c[nH]c4ncnc(NC5CCCC5)c34)c(F)n2)cn1 = < 5.00
CNc1ncnc2[nH]cc(C(=O)c3cnc(NC4CCC(F)(F)CC4)c(F)c3)c12 = < 5.00
Fc1nc(Nc2ccc(C3CC3)nc2)ccc1Cc1c[nH]c2ncccc12 = < 5.00
CC(C)(O)CNc1ncnc2[nH]cc(C(=O)c3ccc(Nc4ccc(C5CC5)nc4)nc3F)c12 = < 5.00
COc1ccc(Nc2ccc(C(=O)c3c[nH]c4ncnc(N[C@@H](C)c5ccc(F)cc5)c34)c(F)n2)cn1 = 5.00 to 5.30
CCc1ccc(Nc2ccc(C(=O)c3c[nH]c4ncnc(NCCCOC)c34)c(F)n2)cn1 = > 5.30
Cc1ccc(Nc2ccc(C(=O)c3c[nH]c4ncc(Cl)cc34)c(F)n2)cn1 = < 5.00
CCNc1ncnc2[nH]cc(C(=O)c3ccc(Nc4ccc(C5CC5)nc4)nc3F)c12 = < 5.00
CCNc1ncnc2[nH]cc(C(=O)c3cnc(NC4CCC(F)(F)CC4)c(F)c3)c12 = < 5.00

====

Measured IC50 on Flt-3 kinase (Homo sapiens) follows.
Sequence (P36888 27-993): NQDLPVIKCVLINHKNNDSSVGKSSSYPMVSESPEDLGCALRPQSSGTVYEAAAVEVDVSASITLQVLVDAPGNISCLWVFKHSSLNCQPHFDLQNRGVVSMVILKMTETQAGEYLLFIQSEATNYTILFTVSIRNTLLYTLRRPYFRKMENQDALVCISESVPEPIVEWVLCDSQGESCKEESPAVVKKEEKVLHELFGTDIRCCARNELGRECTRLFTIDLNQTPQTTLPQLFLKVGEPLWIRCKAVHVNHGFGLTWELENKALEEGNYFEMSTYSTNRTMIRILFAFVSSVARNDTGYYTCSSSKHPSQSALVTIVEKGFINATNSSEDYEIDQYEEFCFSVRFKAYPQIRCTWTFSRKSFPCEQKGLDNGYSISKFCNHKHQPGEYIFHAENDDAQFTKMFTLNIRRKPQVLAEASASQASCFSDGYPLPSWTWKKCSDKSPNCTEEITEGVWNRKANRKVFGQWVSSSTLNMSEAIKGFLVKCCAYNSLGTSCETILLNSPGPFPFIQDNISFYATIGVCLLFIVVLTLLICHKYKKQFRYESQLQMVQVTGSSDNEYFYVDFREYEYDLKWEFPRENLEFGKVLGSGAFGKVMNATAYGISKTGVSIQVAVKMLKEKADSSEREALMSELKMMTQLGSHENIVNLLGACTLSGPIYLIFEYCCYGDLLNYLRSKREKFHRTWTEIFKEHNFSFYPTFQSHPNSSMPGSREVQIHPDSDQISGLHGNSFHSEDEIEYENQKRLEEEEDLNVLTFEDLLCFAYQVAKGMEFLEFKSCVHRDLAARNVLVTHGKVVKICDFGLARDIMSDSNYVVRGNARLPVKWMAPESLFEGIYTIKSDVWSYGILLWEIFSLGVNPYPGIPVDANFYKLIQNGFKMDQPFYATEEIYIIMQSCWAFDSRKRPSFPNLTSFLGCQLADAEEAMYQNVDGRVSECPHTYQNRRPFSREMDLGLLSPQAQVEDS
quantity measured: IC50

Cc1ccc(Nc2ccc(Cc3c[nH]c4ncnc(C5CC5)c34)c(F)n2)cn1 [Compound P-4030] = < 1000 nM
CCc1ccc(Nc2ccc(C(=O)c3c[nH]c4ncnc(C5CC5)c34)c(F)n2)cn1 [Compound P-4029] = < 10 nM
Cc1cnc2[nH]cc(Cc3cnc(Nc4ccc(C(F)(F)F)nc4)nc3)c2c1 [Compound P-3018] = < 10 nM
CCOc1ncnc2[nH]cc(Cc3ccc(Nc4cccnc4)nc3F)c12 [Compound P-4021] = > 1000 nM
CCOc1ccc(Nc2ccc(Cc3c[nH]c4ncnc(C5CC5)c34)c(F)n2)cn1 [Compound P-4026] = < 100 nM
CCn1ccc(Nc2ncc(Cc3c[nH]c4ncc(C)cc34)cn2)n1 [Compound P-3035] = < 100 nM
CCn1cc(Nc2ccc(C(=O)c3c[nH]c4ncnc(C5CC5)c34)c(F)n2)cn1 [Compound P-4037] = < 1000 nM
CCOc1ccc(Nc2ccc(Cc3c[nH]c4ncc(C)cc34)c(F)n2)cn1 [Compound P-3039] = < 100 nM
COc1ncnc2[nH]cc(Cc3ccc(Nc4ccc(C5CC5)nc4)nc3F)c12 [Compound P-4004] = < 10 nM
CCn1cc(Nc2ncc(Cc3c[nH]c4ncc(C)cc34)cn2)cn1 [Compound P-3036] = < 100 nM
CCOc1ccc(Nc2ccc(C(=O)c3c[nH]c4ncnc(C5CC5)c34)c(F)n2)cn1 [Compound P-4027] = < 10 nM
CCCOc1ccc(Nc2ncc(Cc3c[nH]c4ncc(C)cc34)cn2)cc1 [Compound P-3024] = < 10 nM
CCn1cc(Nc2ccc(Cc3c[nH]c4ncnc(OC)c34)c(F)n2)cn1 [Compound P-4011] = < 1000 nM
CCn1cc(Nc2ccc(Cc3c[nH]c4ncnc(C)c34)c(F)n2)cn1 [Compound P-4013] = > 1000 nM
CCOc1ccc(Nc2ccc(C(=O)c3c[nH]c4ncnc(OC)c34)c(F)n2)cn1 [Compound P-4024] = < 100 nM
COCCOc1ncnc2[nH]cc(Cc3ccc(Nc4ccc(C)nc4)nc3F)c12 [Compound P-4015] = > 1000 nM
FC1(F)CCC(Nc2ncc(Cc3c[nH]c4ncc(Cl)cc34)cn2)CC1 [Compound P-3004] = > 1000 nM

====

Collected pIC50 values appear next to each entry.
system tested: BCR-NTRK3 BaF3 cells (Homo sapiens)
Construct: fused on or other part: P11274 (Breakpoint cluster region protein)
measurement description: BaF3 BCR-NTRK3 cell proliferation assay (ATPlite)
assay conditions: read-out: Inhibition of Cell Proliferation IC50, BCR/BaF3 TrkC
Protocol: Compounds are assessed in a variety of cell based assays. […] On day 1, cells are counted, then centrifuged in a conical tube for 5 minutes at 1000 rpm. […] On day 5, ATPlite 1 step Luminescence Assay System (Perkin Elmer #6016739) is brought to room temperature along with the cell cultures. […] The cells are incubated at room temperature for 10 minutes, then luminescence is read on Safire reader. […]
pIC50: −log10 of the molar value.
quantity measured: pIC50

CCOc1ncnc2[nH]cc(Cc3ccc(Nc4cnn(CC)c4)nc3F)c12 [Compound P-4012] = > 7.00
CCCCNc1ncnc2[nH]cc(C(=O)c3ccc(Nc4ccc(OC)nc4)nc3F)c12 [Compound P-4080] = > 8.00
CNc1ncnc2[nH]cc(C(=O)c3ccc(Nc4ccc(OC)nc4)nc3OC)c12 [Compound P-4085] = > 7.00
Clc1ccc(Nc2ncc(Cc3c[nH]c4ncc(Cl)cc34)cn2)cc1 [Compound P-3011] = > 7.00
CCOc1ccc(Nc2ncc(Cc3c[nH]c4ncc(C)cc34)cn2)cc1 [Compound P-3026] = > 7.00
CNc1ncnc2[nH]cc(C(=O)c3ccc(NC4CCC(F)(F)CC4)nc3)c12 [Compound P-4089] = > 8.00
CC(C)(O)CNc1ncnc2[nH]cc(C(=O)c3ccc(Nc4ccc(C5CC5)nc4)nc3F)c12 [Compound P-4049] = > 6.00
COc1ccccc1Nc1ncc(Cc2c[nH]c3ncc(Cl)cc23)cn1 [Compound P-3016] = < 5.00
